Target: PI3Kgamma (Homo sapiens (Human))
Sequence (P48736 whole entry, species assumed): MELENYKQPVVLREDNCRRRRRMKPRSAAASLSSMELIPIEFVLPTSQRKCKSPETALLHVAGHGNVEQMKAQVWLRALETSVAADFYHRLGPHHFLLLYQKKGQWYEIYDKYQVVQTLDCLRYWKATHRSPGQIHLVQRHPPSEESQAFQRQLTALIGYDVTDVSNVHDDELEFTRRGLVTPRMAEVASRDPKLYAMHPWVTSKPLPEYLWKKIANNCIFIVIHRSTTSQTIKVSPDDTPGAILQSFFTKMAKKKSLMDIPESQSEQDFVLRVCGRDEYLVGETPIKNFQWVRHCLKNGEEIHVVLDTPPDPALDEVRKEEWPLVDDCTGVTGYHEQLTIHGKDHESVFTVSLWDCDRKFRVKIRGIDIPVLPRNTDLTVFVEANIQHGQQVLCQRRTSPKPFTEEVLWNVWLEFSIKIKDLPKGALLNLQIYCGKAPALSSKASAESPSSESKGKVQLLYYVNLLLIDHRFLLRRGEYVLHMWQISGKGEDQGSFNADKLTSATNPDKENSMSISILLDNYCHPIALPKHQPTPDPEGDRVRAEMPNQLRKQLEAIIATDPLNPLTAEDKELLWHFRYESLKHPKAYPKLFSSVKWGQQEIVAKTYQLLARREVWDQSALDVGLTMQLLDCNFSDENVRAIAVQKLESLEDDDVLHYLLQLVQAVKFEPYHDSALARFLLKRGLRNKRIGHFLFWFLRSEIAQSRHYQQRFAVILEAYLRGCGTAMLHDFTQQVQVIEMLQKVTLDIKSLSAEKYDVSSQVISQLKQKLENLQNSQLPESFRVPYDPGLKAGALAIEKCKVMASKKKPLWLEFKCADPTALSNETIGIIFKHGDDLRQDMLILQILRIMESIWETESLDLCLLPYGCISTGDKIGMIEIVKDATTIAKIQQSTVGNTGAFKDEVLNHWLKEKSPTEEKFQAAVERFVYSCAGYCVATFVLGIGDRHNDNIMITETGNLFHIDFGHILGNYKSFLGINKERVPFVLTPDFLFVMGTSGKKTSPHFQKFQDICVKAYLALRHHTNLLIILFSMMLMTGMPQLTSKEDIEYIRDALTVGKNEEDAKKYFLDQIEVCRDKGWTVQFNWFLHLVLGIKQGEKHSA
pIC50: −log10 of the molar value.
Response key: TRUE means pIC50 >= 6; FALSE means pIC50 < 6.

Answered cases to consult:
[
  {
    "Compound": "CC[C@H]1[C@H](c2nccs2)OC(=O)N1c1cc(-c2cnc(N)nc2C(F)(F)F)nc(N2CCOCC2)n1 [Example 7]",
    "Category label": "FALSE"
  },
  {
    "Compound": "CC[C@H]1[C@@H](c2ccccc2)OC(=O)N1c1cc(-c2cnc(N)nc2C(F)(F)F)nc(N2CCOCC2)n1 [Example 4]",
    "Category label": "FALSE"
  },
  {
    "Compound": "Nc1ncc(-c2cc(N3C(=O)O[C@@H](c4ccccc4)[C@@H]3CO)nc(N3CCOCC3)n2)c(C(F)(F)F)n1 [Example 10]",
    "Category label": "TRUE"
  },
  {
    "Compound": "C[C@H]1[C@@H](c2nccs2)OC(=O)N1c1cc(-c2cnc(N)nc2C(F)(F)F)nc(N2CCOCC2)n1 [Example 11]",
    "Category label": "TRUE"
  },
  {
    "Compound": "Nc1ncc(-c2cc(N3C(=O)O[C@@H](c4ccc(OCCO)cc4)[C@@H]3CO)nc(N3CCOCC3)n2)c(C(F)(F)F)n1 [Example 13]",
    "Category label": "TRUE"
  }
]

Has CC[C@H]1[C@H](c2ccc(OC)cc2)OC(=O)N1c1cc(-c2cnc(N)nc2C(F)(F)F)nc(N2CCOCC2)n1 (relative stereo) [Example 2] a recorded pIC50 greater than or equal to 6?
FALSE

Has C[C@H]1[C@H](c2ccccc2)OC(=O)N1c1cc(-c2cnc(N)nc2C(F)(F)F)nc(N2CCOCC2)n1 [Example 5] a recorded pIC50 greater than or equal to 6?
FALSE

====

Here's what we have: log10 IC50 numbers for human PI3Kδ (Homo sapiens (Human), UniProt O00329).
Quick note: numbers are log10 of IC50, with µM as the unit.

Reference set (2 entries):
[
  {
    "Compound": "CC[C@H]1[C@H](c2nccs2)OC(=O)N1c1cc(-c2cnc(N)nc2C(F)(F)F)nc(N2CCOCC2)n1",
    "Readout type": "log10 IC50",
    "Data value": -1.39
  },
  {
    "Compound": "Nc1ncc(-c2cc(N3C(=O)O[C@@H](c4ccc(OCCO)cc4)[C@@H]3CO)nc(N3CCOCC3)n2)c(C(F)(F)F)n1",
    "Readout type": "log10 IC50",
    "Data value": -2.52
  }
]

# return log10 IC50 of `COc1ccc([C@@H]2OC(=O)N(c3cc(-c4cnc(N)nc4C(F)(F)F)nc(N4CCOCC4)n3)[C@H]2CO)cc1` (system: human PI3Kδ (Homo sapiens (Human), UniProt O00329))
# Sequence (O00329 2-1044): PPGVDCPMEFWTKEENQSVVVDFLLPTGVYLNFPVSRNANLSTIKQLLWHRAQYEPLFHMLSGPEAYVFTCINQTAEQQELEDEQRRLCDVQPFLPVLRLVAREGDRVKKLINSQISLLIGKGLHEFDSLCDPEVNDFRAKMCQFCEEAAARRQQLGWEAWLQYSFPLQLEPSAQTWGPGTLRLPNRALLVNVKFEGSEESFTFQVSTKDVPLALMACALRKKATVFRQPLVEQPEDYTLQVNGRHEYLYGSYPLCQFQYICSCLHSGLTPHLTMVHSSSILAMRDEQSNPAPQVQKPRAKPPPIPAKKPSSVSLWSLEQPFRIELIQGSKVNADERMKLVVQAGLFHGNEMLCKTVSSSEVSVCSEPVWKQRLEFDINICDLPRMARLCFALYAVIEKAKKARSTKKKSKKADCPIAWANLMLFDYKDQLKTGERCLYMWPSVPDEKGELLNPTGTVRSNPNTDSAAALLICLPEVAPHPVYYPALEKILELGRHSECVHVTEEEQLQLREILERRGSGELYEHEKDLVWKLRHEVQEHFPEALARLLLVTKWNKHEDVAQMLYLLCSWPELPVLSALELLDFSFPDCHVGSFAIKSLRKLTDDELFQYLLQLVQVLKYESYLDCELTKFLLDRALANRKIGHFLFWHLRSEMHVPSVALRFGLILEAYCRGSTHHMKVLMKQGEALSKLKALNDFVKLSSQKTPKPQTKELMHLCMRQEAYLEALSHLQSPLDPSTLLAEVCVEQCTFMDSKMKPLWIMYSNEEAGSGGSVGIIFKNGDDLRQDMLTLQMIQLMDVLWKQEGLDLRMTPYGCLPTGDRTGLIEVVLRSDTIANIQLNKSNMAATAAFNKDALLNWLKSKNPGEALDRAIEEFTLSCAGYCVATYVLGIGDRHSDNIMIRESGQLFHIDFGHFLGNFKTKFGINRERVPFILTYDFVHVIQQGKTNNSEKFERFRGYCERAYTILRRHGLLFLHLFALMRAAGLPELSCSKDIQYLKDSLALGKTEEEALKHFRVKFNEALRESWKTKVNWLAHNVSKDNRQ
-2.40

# return log10 IC50 of CC1C(c2cccnc2)OC(=O)N1c1cc(-c2cnc(N)nc2C(F)(F)F)nc(N2CCOCC2)n1 (stereo not shown) (system: human PI3Kδ (Homo sapiens (Human), UniProt O00329))
-2.00

# return log10 IC50 of `C[C@H]1[C@H](c2ccccc2)OC(=O)N1c1cc(-c2cnc(N)nc2C(F)(F)F)nc(N2CCOCC2)n1` (system: human PI3Kδ (Homo sapiens (Human), UniProt O00329))
-0.83

# return log10 IC50 of `COCCOc1ccc([C@@H]2OC(=O)N(c3cc(-c4cnc(N)nc4C(F)(F)F)nc(N4CCOCC4)n3)[C@H]2CO)cc1` (system: human PI3Kδ (Homo sapiens (Human), UniProt O00329))
-2.40

# return log10 IC50 of `Nc1ncc(-c2cc(N3C(=O)O[C@@H](c4ccccc4)[C@@H]3CO)nc(N3CCOCC3)n2)c(C(F)(F)F)n1` (system: human PI3Kδ (Homo sapiens (Human), UniProt O00329))
-1.51
